Reported values of Papp for individual entries
system: MRP2; assay: Permeability across dog MDCK cells expressing MRP2; type: ADME, cell-based, Canis lupus familiaris; details: read-out: permeability
RECORDED ENDPOINT: Papp

NC(=O)Nc1cn(-c2ccc(-c3ccc(O)cc3)c(F)c2)nc1C(N)=O    3 ×10⁻⁶ cm/s
Cc1cc(O)ccc1-c1ccc(-n2cc(NC(N)=O)c(C(N)=O)n2)cc1C    3 ×10⁻⁶ cm/s
